Assembled from different publications: IC50 for human PDE10A2 (Homo sapiens (Human)).
Attribute Measured: IC50 (nM)

{"Structure Notation": "COc1ccc(C)n2nc(CCc3cn(C)c(-c4cccs4)n3)nc12", "IC50 [nM]": 9}

1 = O=C(NC1CCCC1)c1ccncc1NC(=O)c1nc(C2CC2)ccc1Nc1cncnc1
2 = COc1ccc2c(c1)-c1nc(CCc3nc4c(C)ncc(C)n4n3)cn1C2
### Prompt Endpoint returns the identifier whose IC50 is numerically larger, either 1 or 2 . // output: label of the selected item
### Response 2

----------
Assembled from different publications: pIC50 for UniProt Q9Y233.
pIC50: −log10 of the molar value.
Attribute Measured: pIC50

{"Compound": "Cc1ncc(C)n2nc(CCc3ccc4ccccc4n3)nc12", "Assayed Target": "UniProt Q9Y233", "pIC50": 7.72}
{"Compound": "Cn1ncc(NC(=O)c2nc(C3CC3)cnc2Nc2cncnc2)c1C(=O)NCC(C)(C)O", "Assayed Target": "UniProt Q9Y233", "pIC50": 8.35}
{"Compound": "Cc1ncc(C)n2nc(CCc3ccc4cc5c(cc4n3)OCCO5)nc12", "Assayed Target": "UniProt Q9Y233", "pIC50": 8.40}
{"Compound": "CCCn1ccc(CNC(=O)c2cnn(C)c2C(=O)Nc2ccn3cc(-c4ccccc4)nc3n2)n1", "Assayed Target": "UniProt Q9Y233", "pIC50": 6.14}
{"Compound": "CNC(=O)c1c(NC(=O)c2nc(C3CC3)cnc2Nc2cncnc2)cnn1CCOC", "Assayed Target": "UniProt Q9Y233", "pIC50": 8.92}
{"Compound": "COc1cccc(C(=O)Nc2ccn3cc(-c4ccccc4)nc3n2)n1", "Assayed Target": "UniProt Q9Y233", "pIC50": 7.38}
{"Compound": "CC1CCCCC1n1nnc2c(N)ncnc21 (single isomer, unassigned)", "Assayed Target": "UniProt Q9Y233", "pIC50": 5.08}
{"Compound": "CCN(CC)c1nc(CCc2nc(N3CCCC3)nn2C)nn2c(C)c(C)nc12", "Assayed Target": "UniProt Q9Y233", "pIC50": 8.85}
{"Compound": "O=C(NC1CCCCC1)c1ccncc1NC(=O)c1nc(C2CC2)ccc1Nc1cncnc1", "Assayed Target": "UniProt Q9Y233", "pIC50": 8.70}
{"Compound": "Cc1cc(C)n2nc(CCc3nc(N(C)C4CC4)nn3C)nc2n1", "Assayed Target": "UniProt Q9Y233", "pIC50": 6.89}

a = Cc1ncc(C)n2nc(CCc3nc(-c4cscn4)cn3C)nc12
b = CC1(C)C(=O)N([C@H]2C[C@H](Nc3ncccc3Cl)C2)c2ncccc21
### Prompt Endpoint returns the identifier whose pIC50 is numerically larger, either a or b . // output: label of the selected item
### Response a
(a: 8.89, b: 7.96)

1 = COCC(O)Cn1cc(-c2cccs2)nc1CCc1nc2c(C)cccn2n1 (stereo not drawn)
2 = O=C(Nc1cc(F)c(F)cc1C(=O)N1CCC1)c1nc(C2CC2)cnc1Nc1cncnc1
### Prompt Form: Entry with minimum pIC50 (choose one): 1 / 2 // output: label of the selected item
### Response 2
